Molecular target: 5-HT1A receptors (Rattus norvegicus, UniProt P19327)
Sequence (P19327 1-422): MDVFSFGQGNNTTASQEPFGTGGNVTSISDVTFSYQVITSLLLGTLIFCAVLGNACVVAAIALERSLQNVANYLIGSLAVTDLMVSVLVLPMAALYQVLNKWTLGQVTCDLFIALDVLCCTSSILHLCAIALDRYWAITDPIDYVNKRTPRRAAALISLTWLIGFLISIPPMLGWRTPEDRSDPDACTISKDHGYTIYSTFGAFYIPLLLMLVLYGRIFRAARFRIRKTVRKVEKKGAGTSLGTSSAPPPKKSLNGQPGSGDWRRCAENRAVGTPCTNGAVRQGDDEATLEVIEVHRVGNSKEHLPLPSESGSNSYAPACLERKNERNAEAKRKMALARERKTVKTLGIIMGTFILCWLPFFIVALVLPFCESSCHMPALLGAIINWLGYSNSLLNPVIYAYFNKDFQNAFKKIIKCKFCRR
Assay: Body temperature (hypothermia), agonist and antagonist activity
Type: in vivo, male Wistar rats
Set-up: from tissue; host or cells: whole animal, male Wistar rat (in vivo)
Details: rat, sc, 1 h; antagonist: inhibition of hypothermia induced by 8-OH-DPAT 0.16 mg/kg s.c.; compound s.c. 60 min before test; read-out: Hypothermia ID50 (95% C.L.)
Under this convention, true denotes ED50 strictly below 2 mg/kg and false denotes ED50 at or above 2 mg/kg.

Please check: ED50 for `c1ccc2c(c1)CC(CCN1CCN(c3cccc4c3OCCO4)CC1)C2` , strictly under 2 mg/kg or not?
true

Please check: ED50 for c1ccc2c(c1)CC2CCN1CCN(c2cccc3c2OCCCO3)CC1 (racemic) , strictly under 2 mg/kg or not?
true

Please check: ED50 for c1ccc2c(c1)CCC2CN1CCN(c2cccc3c2OCCO3)CC1 (racemic) , strictly under 2 mg/kg or not?
true

Please check: ED50 for c1ccc2c(c1)CC2CN1CCN(c2cccc3c2OCCO3)CC1 (racemic) , strictly under 2 mg/kg or not?
true

Please check: ED50 for `c1ccc2c(c1)CC(N1CCN(c3cccc4c3OCCO4)CC1)C2` , strictly under 2 mg/kg or not?
true

Please check: ED50 for `c1ccc2c(c1)CC(N1CCN(c3cccc4c3OCCCO4)CC1)C2` , strictly under 2 mg/kg or not?
false

###

Target: 5-HT1A receptors (Rattus norvegicus, UniProt P19327)
Experiment: Flat body posture (FBP), agonist response and antagonism of 8-OH-DPAT
Assay type: in vivo, male Wistar rats
Parameters: from tissue; host or cells: whole animal, male Wistar rat (in vivo)
Conditions: sc, 1 h, read-out: Flat body posture ED50 (95% C.L.), antagonism of 8-OH-DPAT, inhibition of FBP, 8-OH-DPAT 0.16 mg/kg s.c., compound s.c. 60 min before test
readout: ED50

Field: ED50 (5-HT1A receptors (Rattus norvegicus, UniProt P19327)). Entry: `c1ccc2c(c1)CC(N1CCN(c3cccc4c3OCCCO4)CC1)C2`
< 2.5 mg/kg

Field: ED50 (5-HT1A receptors (Rattus norvegicus, UniProt P19327)). Entry: `c1ccc2c(c1)CC(CCN1CCN(c3cccc4c3OCCO4)CC1)C2`
< 2.5 mg/kg

Field: ED50 (5-HT1A receptors (Rattus norvegicus, UniProt P19327)). Entry: c1ccc2c(c1)CCC2CN1CCN(c2cccc3c2OCCO3)CC1 (racemic)
≥ 2.5 mg/kg

Field: ED50 (5-HT1A receptors (Rattus norvegicus, UniProt P19327)). Entry: `c1ccc2c(c1)CC(CN1CCN(c3cccc4c3OCCO4)CC1)C2`
≥ 2.5 mg/kg

Field: ED50 (5-HT1A receptors (Rattus norvegicus, UniProt P19327)). Entry: O=C1CC2(CCCC2)CC(=O)N1CCCCN1CCN(c2ncccn2)CC1 [buspirone, reference compound]
> 10 mg/kg

###

Give measured ED50 for each item. Keep answers brief.
Target: 5-HT1A receptors (Rattus norvegicus)
Sequence (P19327 1-422): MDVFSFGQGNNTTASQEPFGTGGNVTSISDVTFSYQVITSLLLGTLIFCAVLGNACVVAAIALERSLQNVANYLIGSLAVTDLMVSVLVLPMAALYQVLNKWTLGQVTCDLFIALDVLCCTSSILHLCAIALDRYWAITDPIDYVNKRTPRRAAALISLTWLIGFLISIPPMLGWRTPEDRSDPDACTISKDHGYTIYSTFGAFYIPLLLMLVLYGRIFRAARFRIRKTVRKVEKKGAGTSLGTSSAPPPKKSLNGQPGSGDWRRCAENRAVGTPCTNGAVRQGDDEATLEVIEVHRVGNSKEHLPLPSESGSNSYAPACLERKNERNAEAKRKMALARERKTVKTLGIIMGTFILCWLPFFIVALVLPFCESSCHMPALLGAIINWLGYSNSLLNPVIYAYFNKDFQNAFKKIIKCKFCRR
Test: Corticosterone secretion (CS), plasma, agonist and antagonist activity
Assay type: in vivo, male Wistar rats
Set-up: from tissue; host or cells: whole animal, male Wistar rat (in vivo)
Conditions: rat, sc, 1 h; antagonist: inhibition of CS induced by 8-OH-DPAT 0.16 mg/kg s.c.; compound s.c. 60 min before test; read-out: Corticosterone secretion ID50 (95% C.L.)

Fill blank: measured ED50 of the compound c1ccc2c(c1)CCC2CCCN1CCN(c2cccc3c2OCCO3)CC1 (racemic) is ____.
< 2.5 mg/kg

Fill blank: measured ED50 of the compound `c1ccc2c(c1)CC(CCN1CCN(c3cccc4c3OCCO4)CC1)C2` is ____.
< 2.5 mg/kg

Fill blank: measured ED50 of the compound c1ccc2c(c1)CC2CN1CCN(c2cccc3c2OCCO3)CC1 (racemic) is ____.
< 2.5 mg/kg
